STUDY_SYSTEM: NS3/4A protease gt 1b (Hepatitis C virus genotype 1b)
Sequence (P26663 1027-1657): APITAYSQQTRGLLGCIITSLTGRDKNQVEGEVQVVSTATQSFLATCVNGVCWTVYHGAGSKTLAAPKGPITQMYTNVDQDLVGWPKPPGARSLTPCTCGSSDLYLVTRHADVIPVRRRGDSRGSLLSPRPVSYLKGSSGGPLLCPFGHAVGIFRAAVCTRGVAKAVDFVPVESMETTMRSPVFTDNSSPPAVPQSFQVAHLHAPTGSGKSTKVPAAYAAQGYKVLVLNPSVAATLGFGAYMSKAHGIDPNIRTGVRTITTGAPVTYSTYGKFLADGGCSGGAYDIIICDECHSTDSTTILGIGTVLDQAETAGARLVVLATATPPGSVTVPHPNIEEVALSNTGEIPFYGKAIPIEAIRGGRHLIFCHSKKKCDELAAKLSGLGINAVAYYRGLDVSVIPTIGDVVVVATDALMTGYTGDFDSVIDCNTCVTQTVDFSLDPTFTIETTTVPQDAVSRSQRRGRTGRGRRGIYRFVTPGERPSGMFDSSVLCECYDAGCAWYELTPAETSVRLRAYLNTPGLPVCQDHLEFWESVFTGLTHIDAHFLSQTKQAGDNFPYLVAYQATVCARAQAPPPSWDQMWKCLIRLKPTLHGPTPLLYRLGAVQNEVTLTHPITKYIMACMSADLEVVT
Sequence (P26663 1658-1711): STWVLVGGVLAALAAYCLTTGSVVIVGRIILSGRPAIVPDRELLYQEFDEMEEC
PROTOCOL_NOTES: HCV NS3 protease time-resolved fluorescence (TRF) assay, NS3/4A inhibitory activity (Ki), gt 1b
MEASUREMENT_CONTEXT: genotype 1b NS3/4A; read-out: Enzyme Activity gt 1b Ki
MEASURED_QUANTITY: Ki (nM)
Answers are plain numbers, in nM.

# MOLECULE, Ki / nM
measured = [
    ("C=C[C@@H]1C[C@]1(NC(=O)[C@@H]1C[C@@H]2CN1C(=O)[C@H](C1CCCC1)NC(=O)O[C@]1(C)CCC[C@H]1CCCCCc1nc3ccc(OC)cc3cc1O2)C(=O)NS(=O)(=O)C1CC1 [Example I-3]", 0.03),
    ("C=C[C@@H]1C[C@]1(NC(=O)[C@@H]1C[C@@H]2CN1C(=O)[C@H](C1CCCC1)NC(=O)O[C@]1(C)CCC[C@H]1CC/C=C/Cc1c(nc3ccccc3c1OCc1ccccc1)O2)C(=O)NS(=O)(=O)C1CC1 [Example I-17]", 0.07),
    ("C=C[C@@H]1C[C@]1(NC(=O)[C@@H]1C[C@@H]2CN1C(=O)[C@H](C(C)(C)C)NC(=O)O[C@]1(C)C[C@H]1CCCCCc1nc3ccccc3nc1O2)C(=O)NS(=O)(=O)C1CC1 [Example I-8]", 0.02),
    ("C=C[C@@H]1C[C@]1(NC(=O)[C@@H]1C[C@@H]2CN1C(=O)[C@H](C(C)(C)C)NC(=O)O[C@]1(C)C[C@H]1CC/C=C/c1cccc3c1CN(C3)C(=O)O2)C(=O)NS(=O)(=O)C1CC1 [Example I-15]", 0.09),
]

State the recorded Ki for every item in the following list.
1. CC[C@@H]1C[C@]1(NC(=O)[C@@H]1C[C@@H]2CN1C(=O)[C@H](C(C)(C)C)NC(=O)O[C@]1(C)C[C@H]1CCCCCc1cccc3c1CN(C3)C(=O)O2)C(=O)NS(=O)(=O)C1CC1 [Example I-7]
2. C=C[C@@H]1C[C@]1(NC(=O)[C@@H]1C[C@@H]2CN1C(=O)[C@H](C1CCCC1)NC(=O)O[C@]1(C)C[C@H]1CCCCCc1nc3ccccc3nc1O2)C(=O)NS(=O)(=O)C1(C)CC1 [Example I-29]
3. CC[C@@H]1C[C@]1(NC(=O)[C@@H]1C[C@@H]2CN1C(=O)[C@H](C1CCCC1)NC(=O)O[C@]1(C)C[C@H]1CC/C=C/Cn1c(nc3cc(C)ccc3c1=O)O2)C(=O)NS(=O)(=O)C1CC1 [Example I-31]
4. C=C[C@@H]1C[C@]1(NC(=O)[C@@H]1C[C@@H]2CN1C(=O)[C@H](C1CCCC1)NC(=O)O[C@]1(C)C[C@H]1CCCCCn1c(nc3cc(C)ccc3c1=O)O2)C(=O)NS(=O)(=O)C1CC1 [Example I-27]
5. C=C[C@@H]1C[C@]1(NC(=O)[C@@H]1C[C@@H]2CN1C(=O)[C@H](C(C)(C)C)NC(=O)O[C@]1(C)C[C@H]1CCCCCc1nc3ccc(OC)cc3cc1O2)C(=O)NS(=O)(=O)C1CC1 [Example I-10]

Ans.
1. 0.02
2. 0.04
3. 0.1
4. 0.04
5. 0.02
